B1: ZNF649 (parent)
chain: MTKAQESLTLEDVAVDFTWEEWQF

# Variants of: B1
# Test name: protein stability index of a GFP-peptide fusion (GPS, HEK-293T) (PSI 1-6); higher = more stable;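 note: lentivirally expressed fusions sorted by FACS into six bins by GFP to DsRed ratio, PSI derived from sequencing read proportions per bin multiplied by bin number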
# Condition label: c terminus: a fixed tail appended
Reported values of protein stability index for individual entries

Some variants with known protein stability index results, for comparison:
[[record]]
entry_sequence = "MTKAQESLTLEDVAVDFTWEDWQF [E21D]"
quantity_kind = "protein stability index"
value_observed = 3.36

[[record]]
entry_sequence = "MTKAQESLTLEDVAVDFTWGEWQF [E20G]"
quantity_kind = "protein stability index"
value_observed = 2.17

[[record]]
entry_sequence = "MTKAQESLTLEDVAVDFTGEEWQF [W19G]"
quantity_kind = "protein stability index"
value_observed = 4.61

[[record]]
entry_sequence = "MTKAQESLTLEDVAVDYTWEEWQF [F17Y]"
quantity_kind = "protein stability index"
value_observed = 3.76

[[record]]
entry_sequence = "MTKAQESLTLEDVAVDFTWEEFQF [W22F]"
quantity_kind = "protein stability index"
value_observed = 3.41


Quick check: protein stability index of MTKAQESLTLEDVAVDSTWEEWQF [F17S] ? 4.52

Same question for MTKAQESLTLEDVAGDFTWEEWQF [V15G] please. 4.07

Could you do the same for MTKAQESLTLEDVAVDFTWEEQQF [W22Q] , please? 4.16

Also MTKAQESLTVEDVAVDFTWEEWQF [L10V] ? 3.01

Also, TTKAQESLTLEDVAVDFTWEEWQF [M1T] please. 3.79

Input MTKAQESLTLTDVAVDFTWEEWQF [E11T] 2.86

MTKAQESLTLEDVASDFTWEEWQF [V15S] , same question. 3.35

Moving on to the next variant: MTKAQEKLTLEDVAVDFTWEEWQF [S7K] 3.01

Moving on to the next variant: MTKAQESLTGEDVAVDFTWEEWQF [L10G] 4.14

Next: MTKAQESLTLEDFAVDFTWEEWQF [V13F] 2.54

Query MTKAQESLTLEDVAVFFTWEEWQF [D16F] next 2.94

Same lookup for MTKAQESLTLEDGAVDFTWEEWQF [V13G] , please. 3.64

Please give the result for MTKAQESLTLEDVAVNFTWEEWQF [D16N] too. 3.77

Then MTKAQESLVLEDVAVDFTWEEWQF [T9V] ? 3.16

What about this variant? MTKAQISLTLEDVAVDFTWEEWQF [E6I] 4.31

And what about the variant PTKAQESLTLEDVAVDFTWEEWQF [M1P] ? 2.81

Can you check MTKTQESLTLEDVAVDFTWEEWQF [A4T] next? 3.11

Also need MTKAQESLTLNDVAVDFTWEEWQF [E11N] , thanks. 3.28

Same thing, different variant: MTKAQESLTLEDVAQDFTWEEWQF [V15Q] 4.44

What would you report for MTKAQESLTLEDVAVDFTWEEWNF [Q23N] ? 2.74

Entry MYKAQESLTLEDVAVDFTWEEWQF [T2Y] please 2.33

Okay, and MTKAQESLTLEDEAVDFTWEEWQF [V13E] ? 4.25

What about MTKAQESLTLEDVAVDFTWEEWQA [F24A] ? 4.61

Can you check MTKAQESLTLEDVAVDLTWEEWQF [F17L] next? 4.03

And MTKAQESLTLEDVANDFTWEEWQF [V15N] ? 3.87

Also MTKAQLSLTLEDVAVDFTWEEWQF [E6L] , if possible. 2.43

Check MTKNQESLTLEDVAVDFTWEEWQF [A4N] too. 3.04
